src = patent US20230042936A1

Target: CDK6/CycD1 (Homo sapiens, UniProt Q00534)
Sequence (Q00534 whole entry): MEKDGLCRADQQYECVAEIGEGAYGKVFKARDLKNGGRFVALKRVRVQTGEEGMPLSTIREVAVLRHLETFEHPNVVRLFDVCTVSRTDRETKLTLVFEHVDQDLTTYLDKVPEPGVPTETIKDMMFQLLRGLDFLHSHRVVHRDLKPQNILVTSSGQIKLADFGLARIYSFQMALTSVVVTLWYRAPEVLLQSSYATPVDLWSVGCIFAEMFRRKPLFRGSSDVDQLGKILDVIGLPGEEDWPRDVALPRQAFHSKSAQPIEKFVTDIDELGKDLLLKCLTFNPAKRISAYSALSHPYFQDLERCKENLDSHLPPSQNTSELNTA
Sequence (P24385 whole entry partner): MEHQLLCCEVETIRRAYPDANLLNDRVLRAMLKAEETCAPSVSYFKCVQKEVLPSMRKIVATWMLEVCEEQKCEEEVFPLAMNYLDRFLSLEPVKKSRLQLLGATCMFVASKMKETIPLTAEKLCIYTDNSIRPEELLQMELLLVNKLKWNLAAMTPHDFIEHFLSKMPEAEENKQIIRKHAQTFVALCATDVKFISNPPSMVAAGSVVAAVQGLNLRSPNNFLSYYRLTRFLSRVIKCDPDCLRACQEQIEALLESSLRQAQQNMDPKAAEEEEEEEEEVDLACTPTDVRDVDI
Experiment: Kinase profiling
Conditions: 10 semi-logarithmic dilutions from 50 μM, singlicate
Form field: IC50 (one value per entry).
Return type: number; implicit unit nM.

So what does the record say about IC50 for CC(=O)c1c(C)c2cnc(Nc3ccc(N4CCNCC4)cc3)nc2n([C@@H]2CC3CCC2C3)c1=O (stereo partly shown) [PS010] ?
1.83

I have this compound here, O=c1ccc2cnc(Nc3ccc(N4CCC(CCCO)CC4)cc3F)nc2n1[C@@H]1CC2CCC1C2 (stereo partly shown) [PS002] , and I need its recorded IC50.
485

More entries:
Endpoint output: IC50 of CC(=O)c1c(C)c2cnc(Nc3ccc(N4CCC(CCCO)CC4)cc3)nc2n(C2CCCC2)c1=O [PS009] . Value?
13

* * *

Target: PCTAIRE1/CycY (Homo sapiens, UniProt Q00536)
Sequence (Q00536 whole entry, species assumed): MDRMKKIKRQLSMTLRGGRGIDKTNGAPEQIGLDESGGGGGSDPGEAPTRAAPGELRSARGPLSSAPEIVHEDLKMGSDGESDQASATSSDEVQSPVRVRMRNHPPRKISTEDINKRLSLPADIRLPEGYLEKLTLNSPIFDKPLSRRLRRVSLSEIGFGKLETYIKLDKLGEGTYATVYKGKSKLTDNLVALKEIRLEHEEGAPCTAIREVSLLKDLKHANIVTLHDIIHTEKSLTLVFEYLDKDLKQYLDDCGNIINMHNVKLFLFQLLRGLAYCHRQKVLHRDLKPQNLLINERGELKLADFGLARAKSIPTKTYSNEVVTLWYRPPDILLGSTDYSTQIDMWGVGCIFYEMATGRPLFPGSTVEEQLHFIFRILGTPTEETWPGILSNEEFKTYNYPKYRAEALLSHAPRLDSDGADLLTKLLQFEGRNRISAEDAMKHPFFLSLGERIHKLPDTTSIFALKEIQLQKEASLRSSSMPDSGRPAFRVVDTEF
Sequence (Q8ND76 whole entry partner, species assumed): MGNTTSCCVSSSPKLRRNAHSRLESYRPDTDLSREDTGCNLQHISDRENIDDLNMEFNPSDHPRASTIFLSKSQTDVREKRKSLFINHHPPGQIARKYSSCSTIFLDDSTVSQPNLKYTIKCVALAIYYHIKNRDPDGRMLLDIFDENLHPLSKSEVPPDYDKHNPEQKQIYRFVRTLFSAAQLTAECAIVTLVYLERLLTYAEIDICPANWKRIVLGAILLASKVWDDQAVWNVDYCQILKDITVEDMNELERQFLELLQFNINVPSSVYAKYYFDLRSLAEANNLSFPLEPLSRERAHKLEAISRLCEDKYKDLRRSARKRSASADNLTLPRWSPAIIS
Assay: Kinase profiling
Settings: 10 semi-logarithmic dilutions from 50 μM, singlicate
readout type: IC50 (µM)
Express your answer in µM, writing the number without its unit.

IC50 for CC(O)CCC1CCN(c2ccc(Nc3ncc4ccc(=O)n([C@@H]5CC6CCC5C6)c4n3)cc2)CC1 (stereo partly drawn) [PS004] ?
13.5

Dear colleague, I am looking for the recorded IC50 of the following compound: CC(=O)c1c(C)c2cnc(Nc3ccc(N4CCC(CCCO)CC4)cc3)nc2n([C@@H]2CC3CCC2C3)c1=O (stereo partly drawn) [PS008]
35.9

# IC50 lookup, item O=c1ccc2cnc(Nc3ccc(N4CCNCC4)cc3)nc2n1[C@@H]1CC2CCC1C2 (stereo partly drawn) [PS007]
0.00404

What value of IC50 has been recorded for this entry: CN(C)C(=O)c1cc2cnc(Nc3ccc(N4CCNCC4)cn3)nc2n1C1CCCC1 [Ribociclib, reference compound]
0.589

For CC(=O)c1c(C)c2cnc(Nc3ccc(N4CCNCC4)cc3)nc2n([C@@H]2CC3CCC2C3)c1=O (stereo partly drawn) [PS010] , what is its reported IC50?
4.31

Quick one: IC50 for O=c1ccc2cnc(Nc3ccc(N4CCC(CCCO)CC4)cc3)nc2n1C1CC2CCC1C2 (stereo not drawn) [PD-0183812, reference compound] ?
43.5

Given CC(O)COC1CCN(c2ccc(Nc3ncc4ccc(=O)n([C@@H]5CC6CCC5C6)c4n3)cc2)CC1 (stereo partly drawn) [PS006] , state its recorded IC50.
3.84

Look at this compound and give its reported IC50. O=c1ccc2cnc(Nc3ccc(N4CCC(CCCO)CC4)c(F)c3)nc2n1[C@@H]1CC2CCC1C2 (stereo partly drawn) [PS003]
43.8

So what does the record say about IC50 for CC(O)CCN1CCN(c2ccc(Nc3ncc4ccc(=O)n([C@@H]5CC6CCC5C6)c4n3)cc2)CC1 (stereo partly drawn) [PS005] ?
0.00769

Next:
// returns reported IC50 for input O=c1ccc2cnc(Nc3ccc(N4CCC(OCC5(CO)COC5)CC4)cc3)nc2n1[C@@H]1CC2CCC1C2 (stereo partly drawn) [PS016]
2.02

* * *

Molecular target: CDK6/CycD3 (Homo sapiens, UniProt Q00534)
Sequence (Q00534 whole entry): as the sequence (Q00534 whole entry) above
Sequence (P30281 whole entry partner): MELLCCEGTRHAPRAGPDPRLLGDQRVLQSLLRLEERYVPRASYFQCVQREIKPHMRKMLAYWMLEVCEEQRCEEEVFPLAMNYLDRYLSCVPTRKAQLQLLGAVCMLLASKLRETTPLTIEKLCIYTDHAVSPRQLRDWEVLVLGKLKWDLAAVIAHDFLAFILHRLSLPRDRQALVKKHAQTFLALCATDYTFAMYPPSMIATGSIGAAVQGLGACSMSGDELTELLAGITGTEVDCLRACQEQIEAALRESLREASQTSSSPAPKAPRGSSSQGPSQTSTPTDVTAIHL
Test: Kinase profiling
Details: 10 semi-logarithmic dilutions from 50 μM, singlicate
readout type: pIC50
Value format note: pIC50 is -log10 of concentration (mol/L); just state the number.

Worked set:
Item under review: O=c1ccc2cnc(Nc3ccc(N4CCNCC4)cc3)nc2n1[C@@H]1CC2CCC1C2 (some centres unmarked) [PS007] . Reported pIC50?
8.02

# input compound: O=c1ccc2cnc(Nc3ccc(N4CCC(CCCO)CC4)cc3F)nc2n1[C@@H]1CC2CCC1C2 (some centres unmarked) [PS002] ; wanted: its pIC50
4.90

Look at this compound and give its reported pIC50. CC(=O)c1c(C)c2cnc(Nc3ccc(N4CCC(CCCO)CC4)cc3)nc2n([C@@H]2CC3CCC2C3)c1=O (some centres unmarked) [PS008]
6.17

Quick one: pIC50 of O=c1ccc2cnc(Nc3ccc(N4CCC(CCCO)CC4)c(F)c3)nc2n1[C@@H]1CC2CCC1C2 (some centres unmarked) [PS003] ?
6.21

Which measured pIC50 value corresponds to O=c1ccc2cnc(Nc3ccc(N4CCC(CCCO)CC4)cc3)nc2n1C1CC2CCC1C2 (centres unmarked) [PD-0183812, reference compound] ?
6.52

---
Could you tell me which pIC50 is on file for CC(O)CCN1CCN(c2ccc(Nc3ncc4ccc(=O)n([C@@H]5CC6CCC5C6)c4n3)cc2)CC1 (some centres unmarked) [PS005] ?
7.77

Report pIC50 for CC(O)CCC1CCN(c2ccc(Nc3ncc4ccc(=O)n([C@@H]5CC6CCC5C6)c4n3)cc2)CC1 (some centres unmarked) [PS004] please.
6.35

Recorded pIC50 of O=c1ccc2cnc(Nc3ccc(N4CCC(OCC5(CO)COC5)CC4)cc3)nc2n1[C@@H]1CC2CCC1C2 (some centres unmarked) [PS016] , please.
7.48

* * *

// endpoint pIC50 / system PIM1 (Homo sapiens)
Expect pIC50 as a plain number equal to -log10 of the molar concentration.

Use the examples below as a reference point.
Given the entry O=c1ccc2cnc(Nc3ccc(N4CCC(CCCO)CC4)cc3)nc2n1C1CC2CCC1C2 (stereo not drawn) [PD-0183812, reference compound] , what pIC50 was observed with PIM1 (Homo sapiens)?
4.45

Query pIC50 on PIM1 (Homo sapiens) for O=c1ccc2cnc(Nc3ccc(N4CCNCC4)cc3)nc2n1[C@@H]1CC2CCC1C2 (stereo partly drawn) [PS007]
Sequence (P11309 whole entry, species assumed): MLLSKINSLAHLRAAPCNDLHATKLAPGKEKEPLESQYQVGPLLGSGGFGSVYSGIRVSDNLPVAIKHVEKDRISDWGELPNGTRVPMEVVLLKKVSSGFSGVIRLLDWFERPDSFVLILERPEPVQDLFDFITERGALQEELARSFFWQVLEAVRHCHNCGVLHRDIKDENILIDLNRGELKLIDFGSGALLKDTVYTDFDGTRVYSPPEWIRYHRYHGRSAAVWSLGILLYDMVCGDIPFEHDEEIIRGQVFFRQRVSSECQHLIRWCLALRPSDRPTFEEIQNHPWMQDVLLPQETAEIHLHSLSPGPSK
6.31

Request: pIC50, test system PIM1 (Homo sapiens), entry CN(C)C(=O)c1cc2cnc(Nc3ccc(N4CCNCC4)cn3)nc2n1C1CCCC1 [Ribociclib, reference compound]
7.61

***
Short answer please: pIC50, PIM1 (Homo sapiens), entry O=c1ccc2cnc(Nc3ccc(N4CCC(OCC5(CO)COC5)CC4)cc3)nc2n1[C@@H]1CC2CCC1C2 (stereo partly drawn) [PS016]
4.40

Recorded pIC50 for CC(=O)c1c(C)c2cnc(Nc3ccc(N4CCNCC4)cc3)nc2n([C@@H]2CC3CCC2C3)c1=O (stereo partly drawn) [PS010] with PIM1 (Homo sapiens), please?
5.09

* * *

Molecular target: CDK1/CycB1 (Homo sapiens)
Sequence (P06493 whole entry): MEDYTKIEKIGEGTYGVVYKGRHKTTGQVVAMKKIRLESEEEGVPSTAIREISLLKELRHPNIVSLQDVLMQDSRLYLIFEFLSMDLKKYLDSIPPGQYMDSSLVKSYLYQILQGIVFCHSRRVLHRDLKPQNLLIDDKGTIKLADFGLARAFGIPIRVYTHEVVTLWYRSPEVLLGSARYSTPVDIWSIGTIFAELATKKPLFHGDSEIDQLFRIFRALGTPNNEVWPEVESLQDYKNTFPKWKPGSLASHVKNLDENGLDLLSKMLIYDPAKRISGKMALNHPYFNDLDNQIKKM
Sequence (P14635 whole entry partner): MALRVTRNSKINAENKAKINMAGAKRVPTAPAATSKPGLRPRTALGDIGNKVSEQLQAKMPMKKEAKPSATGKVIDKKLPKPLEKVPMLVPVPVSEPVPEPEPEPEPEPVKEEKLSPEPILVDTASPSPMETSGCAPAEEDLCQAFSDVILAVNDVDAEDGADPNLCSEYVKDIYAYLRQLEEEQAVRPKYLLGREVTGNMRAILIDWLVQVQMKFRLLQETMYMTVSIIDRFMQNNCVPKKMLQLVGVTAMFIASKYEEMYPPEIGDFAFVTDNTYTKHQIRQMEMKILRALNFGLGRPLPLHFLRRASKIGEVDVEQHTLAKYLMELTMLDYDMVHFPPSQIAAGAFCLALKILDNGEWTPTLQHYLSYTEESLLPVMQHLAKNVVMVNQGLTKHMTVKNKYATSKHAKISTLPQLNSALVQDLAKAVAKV
Assay: Kinase profiling
Type: biochemical
Details: 10 semi-logarithmic dilutions from 50 μM, singlicate
Output schema: class label derived from IC50. Mapping: one (below 700 nM), two (700 nM to below 5000 nM), three (5000 nM or more)

Observe how each entry below is paired with its result.
Which class holds O=c1ccc2cnc(Nc3ccc(N4CCNCC4)cc3)nc2n1[C@@H]1CC2CCC1C2 (stereo partly shown) ?
one

Category of CC(O)CCC1CCN(c2ccc(Nc3ncc4ccc(=O)n([C@@H]5CC6CCC5C6)c4n3)cc2)CC1 (stereo partly shown) , please.
three

Band for the recorded IC50 of CC(O)CCN1CCN(c2ccc(Nc3ncc4ccc(=O)n([C@@H]5CC6CCC5C6)c4n3)cc2)CC1 (stereo partly shown) ?
one

Lab note: which band did O=c1ccc2cnc(Nc3ccc(N4CCC(CCCO)CC4)cc3F)nc2n1[C@@H]1CC2CCC1C2 (stereo partly shown) land in?
three

The entry to classify is CC(=O)c1c(C)c2cnc(Nc3ccc(N4CCNCC4)cc3)nc2n([C@@H]2CC3CCC2C3)c1=O (stereo partly shown) ; which class holds it?
two

Attention now turns to another entry.
Classify this compound: CC(=O)c1c(C)c2cnc(Nc3ccc(N4CCC(CCCO)CC4)cc3)nc2n(C2CCCC2)c1=O
three

* * *

Target: CDK12wt/CycK (Homo sapiens, UniProt Q9NYV4)
Sequence (Q9NYV4 whole entry): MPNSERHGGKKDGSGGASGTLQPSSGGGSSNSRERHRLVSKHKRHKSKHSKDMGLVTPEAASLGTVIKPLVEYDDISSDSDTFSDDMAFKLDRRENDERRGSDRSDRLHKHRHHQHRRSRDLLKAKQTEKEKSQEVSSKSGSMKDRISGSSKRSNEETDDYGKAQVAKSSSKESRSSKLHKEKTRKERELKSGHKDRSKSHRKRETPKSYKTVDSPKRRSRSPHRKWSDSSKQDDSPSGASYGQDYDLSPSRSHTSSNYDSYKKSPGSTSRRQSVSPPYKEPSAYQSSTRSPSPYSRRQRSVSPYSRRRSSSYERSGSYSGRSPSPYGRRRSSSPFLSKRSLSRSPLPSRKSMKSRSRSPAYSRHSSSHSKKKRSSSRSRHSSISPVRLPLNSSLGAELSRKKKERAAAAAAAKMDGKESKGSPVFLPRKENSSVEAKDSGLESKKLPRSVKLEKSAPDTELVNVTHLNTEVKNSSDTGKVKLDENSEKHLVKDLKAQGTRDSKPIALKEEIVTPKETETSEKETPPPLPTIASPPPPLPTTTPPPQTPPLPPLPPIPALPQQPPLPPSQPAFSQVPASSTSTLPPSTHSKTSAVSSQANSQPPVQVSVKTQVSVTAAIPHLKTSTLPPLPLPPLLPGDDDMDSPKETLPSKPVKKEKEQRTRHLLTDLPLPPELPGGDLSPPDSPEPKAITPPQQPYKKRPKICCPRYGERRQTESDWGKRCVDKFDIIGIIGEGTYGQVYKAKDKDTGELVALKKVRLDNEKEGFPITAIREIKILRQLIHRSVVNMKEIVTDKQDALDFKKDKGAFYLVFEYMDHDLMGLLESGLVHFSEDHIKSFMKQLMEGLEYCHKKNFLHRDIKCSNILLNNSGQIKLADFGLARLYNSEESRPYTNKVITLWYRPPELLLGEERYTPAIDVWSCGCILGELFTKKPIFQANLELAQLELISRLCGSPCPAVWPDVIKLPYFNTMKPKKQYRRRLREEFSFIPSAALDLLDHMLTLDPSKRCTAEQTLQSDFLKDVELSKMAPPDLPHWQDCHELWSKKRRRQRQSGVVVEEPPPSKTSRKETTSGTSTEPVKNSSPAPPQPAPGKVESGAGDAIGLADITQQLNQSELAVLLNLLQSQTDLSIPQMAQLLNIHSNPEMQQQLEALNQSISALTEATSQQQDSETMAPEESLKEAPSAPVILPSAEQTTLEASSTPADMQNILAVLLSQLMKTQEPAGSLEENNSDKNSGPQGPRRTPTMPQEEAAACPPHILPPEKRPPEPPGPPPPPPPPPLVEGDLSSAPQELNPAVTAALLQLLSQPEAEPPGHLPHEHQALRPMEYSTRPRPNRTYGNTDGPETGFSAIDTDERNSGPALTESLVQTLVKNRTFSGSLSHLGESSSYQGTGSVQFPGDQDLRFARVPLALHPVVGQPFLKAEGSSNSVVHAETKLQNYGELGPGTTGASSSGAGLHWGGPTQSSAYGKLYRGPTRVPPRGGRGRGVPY
Sequence (O75909 whole entry partner): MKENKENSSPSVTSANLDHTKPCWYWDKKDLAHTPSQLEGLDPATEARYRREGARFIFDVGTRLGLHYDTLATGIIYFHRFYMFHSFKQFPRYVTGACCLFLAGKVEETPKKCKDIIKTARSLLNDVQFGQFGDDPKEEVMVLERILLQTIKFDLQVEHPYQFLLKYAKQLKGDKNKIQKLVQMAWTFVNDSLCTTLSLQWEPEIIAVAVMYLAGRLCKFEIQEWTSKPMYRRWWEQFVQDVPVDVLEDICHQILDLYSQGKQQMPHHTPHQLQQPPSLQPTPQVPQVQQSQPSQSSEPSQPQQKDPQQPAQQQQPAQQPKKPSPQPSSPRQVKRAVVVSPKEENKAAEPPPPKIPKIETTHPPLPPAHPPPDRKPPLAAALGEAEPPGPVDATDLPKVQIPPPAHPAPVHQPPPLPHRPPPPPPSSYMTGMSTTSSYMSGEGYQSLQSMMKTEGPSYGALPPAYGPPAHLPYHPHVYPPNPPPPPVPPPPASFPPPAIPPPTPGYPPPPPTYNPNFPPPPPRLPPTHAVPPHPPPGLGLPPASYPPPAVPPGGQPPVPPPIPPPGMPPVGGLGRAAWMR
Assay: Kinase profiling
Conditions: 10 semi-logarithmic dilutions from 50 μM, singlicate
readout type: pIC50
Worth noting: pIC50 values are minus log10 of concentrations stated in mol/L.

# get_value(readout='pIC50', item= CCN1CCN(Cc2ccc(Nc3ncc(F)c(-c4cc(F)c5nc(C)n(C(C)C)c5c4)n3)nc2)CC1 [Abemaciclib, reference compound] )
4.68

Need pIC50 of CC(O)CCC1CCN(c2ccc(Nc3ncc4ccc(=O)n([C@@H]5CC6CCC5C6)c4n3)cc2)CC1 (stereo partly shown) [PS004] , thanks.
6.03

Which pIC50 value is on record for CC(O)CCN1CCN(c2ccc(Nc3ncc4ccc(=O)n([C@@H]5CC6CCC5C6)c4n3)cc2)CC1 (stereo partly shown) [PS005] ?
7.51

Attention now turns to another entry.
Query (molecule): CC(O)COC1CCN(c2ccc(Nc3ncc4ccc(=O)n([C@@H]5CC6CCC5C6)c4n3)cc2)CC1 (stereo partly shown) [PS006] ; field requested: pIC50
5.99

* * *

Biological target: CDK1/CycA2 (Homo sapiens)
Assay: Kinase profiling
Type: biochemical
readout type: pIC50
Would you please state pIC50, meaning minus log10 of the concentration in mol/L, as a bare number?

What value of pIC50 has been reported for the following compound? O=c1ccc2cnc(Nc3ccc(N4CCC(CCCO)CC4)cc3)nc2n1C1CC2CCC1C2 (stereo not shown) [PD-0183812, reference compound]
4.54
